Tested on: DAF-12 nuclear receptor (Haemonchus contortus)
Assay: hcDAF-12 driven luciferase reporter activation – cell-based, luminescence, HEK293, lit1-tk-luc reporter, primary screen (AID 652067);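 also: 100% = response to 3 µM Δ7-dafachronic acid high control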
Conditions: HEK293 hcDAF-12 lit1-tk-luc reporter, at 6.8 µM, hits give high values, 0% DMSO, 100% Δ7-dafachronic acid
Among all 370,000 compounds or so, about 5,400 (1.5%) were called active. This is one part of a sample in which actives are shown more often than they occur.
REPORTED PROPERTY: activation (%)
// return numeric value only (unit: %, not printed)

COMPOUND	ENDPOINT UNIT	activation
O=C(NC1CCC1)c1ccc(C#CC2CC2)cn1	%	1.58
C[C@@H]1COc2cccc(N3CCCC3)c2S(=O)(=O)N1C	%	-0.39
Cc1ccc(C(=O)C2CCN(CC(=O)NCCC(C)C)CC2)cc1	%	-1.66
CC(=O)Nc1nc2ncccn2c1-c1ccc(C(F)(F)F)cc1	%	-1.9
N#Cc1ccc(OCCCN2CCC(C(O)(c3ccccc3)c3ccccc3)CC2)c(F)c1	%	-0.43

We now examine a further compound.
Reported activation of Cc1cc(C(=O)OC(C)C(=O)Nc2cccc(S(=O)(=O)N3CCOCC3)c2)c(C)o1 (configuration not stated) : -0.06
